Target Or Test System: hERG (KCNH2) (Homo sapiens, UniProt Q12809)
Sequence (Q12809 whole entry): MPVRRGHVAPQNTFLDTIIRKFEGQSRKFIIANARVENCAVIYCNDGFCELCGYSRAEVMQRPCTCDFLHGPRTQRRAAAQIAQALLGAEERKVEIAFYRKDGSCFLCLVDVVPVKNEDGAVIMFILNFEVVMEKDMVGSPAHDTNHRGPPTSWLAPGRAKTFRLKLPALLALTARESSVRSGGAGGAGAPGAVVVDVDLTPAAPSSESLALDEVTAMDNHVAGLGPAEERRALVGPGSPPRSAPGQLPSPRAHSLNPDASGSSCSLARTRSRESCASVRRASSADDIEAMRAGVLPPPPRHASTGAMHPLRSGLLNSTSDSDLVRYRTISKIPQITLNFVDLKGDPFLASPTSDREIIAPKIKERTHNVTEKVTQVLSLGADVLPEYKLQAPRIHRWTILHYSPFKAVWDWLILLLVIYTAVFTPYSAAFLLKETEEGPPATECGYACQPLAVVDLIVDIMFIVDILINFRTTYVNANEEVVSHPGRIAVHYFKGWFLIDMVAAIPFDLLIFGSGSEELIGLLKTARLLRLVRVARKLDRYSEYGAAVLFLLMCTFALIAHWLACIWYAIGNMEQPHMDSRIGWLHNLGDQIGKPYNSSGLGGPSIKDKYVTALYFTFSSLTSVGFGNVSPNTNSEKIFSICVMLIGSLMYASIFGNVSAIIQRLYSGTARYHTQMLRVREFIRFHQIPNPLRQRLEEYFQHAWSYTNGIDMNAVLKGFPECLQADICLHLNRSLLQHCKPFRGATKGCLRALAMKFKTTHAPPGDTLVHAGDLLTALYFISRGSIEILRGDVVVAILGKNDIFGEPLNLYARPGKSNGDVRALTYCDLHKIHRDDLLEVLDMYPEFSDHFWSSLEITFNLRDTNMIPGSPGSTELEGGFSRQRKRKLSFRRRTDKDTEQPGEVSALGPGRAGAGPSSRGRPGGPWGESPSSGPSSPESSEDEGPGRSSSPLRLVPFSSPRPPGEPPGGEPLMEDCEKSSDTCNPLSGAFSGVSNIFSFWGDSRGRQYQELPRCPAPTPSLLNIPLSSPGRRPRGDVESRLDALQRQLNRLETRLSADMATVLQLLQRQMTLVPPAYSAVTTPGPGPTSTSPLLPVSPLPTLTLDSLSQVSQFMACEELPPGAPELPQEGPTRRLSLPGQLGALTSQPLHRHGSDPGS
Test Protocol: Inhibition of human ERG channel expressed in CHO cells at […] by patch clamp method
Assay type: cell-based
Condition Context: CHO cells expressing human ERG channel
Outcome Measure: inhibition at […] (%)
# value in %; strip the unit string

> print(dat)
                   structure.notation  unit.name  value.measured
1  Cl.NC[C@H]1C[C@@H]1c1cc(F)ccc1OCCF          %               6

// next item, inhibition at […] requested
Field request: inhibition at […] | item: `C=CCOc1ccc(F)cc1[C@H]1C[C@@H]1CN.Cl` 6.4
